Attribution: patent US8247211B2

- System: Enterococcus sp.
- procedure_details: In vitro antibacterial evaluation: minimum inhibitory concentration (MIC), broth dilution method
- Type: cell-based
- condition_set: strain GC 6189
Readings of MIC Enterococcus faecalis (GC 6189) for the listed compounds
parameter: MIC Enterococcus faecalis (GC 6189) (µg/mL)

{"columns": ["compound", "measurement_target", "measured"],
 "data": [
  ["COc1cccc(C2OC3C(OC4C(CO)OC(Oc5ccc(CC6NC(=O)C(C(C)c7ccccc7)NC(=O)CNC(=O)C(CO)NC(=O)C(C(O)C7CNC(=N)N7C7OC(CO)C(O)C(O)C7O)NC(=O)C(C(O)C7CNC(=N)N7)NC6=O)cc5)C(O)C4O)OC(CO)C(O)C3O2)c1 (single isomer, unassigned) [Example 137b]", "Enterococcus sp.", 32],
  ["CC(c1ccccc1)C1NC(=O)CNC(=O)C(CO)NC(=O)C(CC2CN(Cc3ccccc3)C(=N)N2C2OC(CO)C(O)C(O)C2O)NC(=O)C(CC2CNC(=N)N2)NC(=O)C(Cc2ccc(OC3OC(CO)C(OC4OC5COC6(OC5C(O)C4O)C4CC5CC(C4)CC6C5)C(O)C3O)cc2)NC1=O (stereo not drawn) [Example 80]", "Enterococcus sp.", 64],
  ["CC(c1ccccc1)C1NC(=O)CNC(=O)C(CO)NC(=O)C(C(O)C2CNC(=N)N2C2OC(CO)C(O)C(O)C2O)NC(=O)C(C(O)C2CNC(=N)N2)NC(=O)C(Cc2ccc(OC3OC(CO)C(OC4OC5COC(c6cccc(-c7ccccc7)c6)OC5C(O)C4O)C(O)C3O)cc2)NC1=O (stereo not drawn) [Example 154]", "Enterococcus sp.", 2]
]}

###

# key: entry, value: MIC Enterococcus faecalis (GC 4554)
- Test system: Enterococcus sp.
- procedure_details: In vitro antibacterial evaluation: minimum inhibitory concentration (MIC), broth dilution method
- Type: cell-based
- condition_set: strain GC 4554

{"columns": ["compound", "measurement_target", "MIC Enterococcus faecalis (GC 4554) / µg/mL"],
 "data": [
  ["CC(c1ccccc1)C1NC(=O)CNC(=O)C(CO)NC(=O)C(C(O)C2CNC(=N)N2C2OC(CO)C(O)C(O)C2O)NC(=O)C(C(O)C2CNC(=N)N2)NC(=O)C(Cc2ccc(OC3OC(CO)C(OC4OC5COC(c6ccc(C=Cc7ccccc7)cc6)OC5C(O)C4O)C(O)C3O)cc2)NC1=O (stereo not shown) [Example 172]", "Enterococcus sp.", 4],
  ["CCCC(CCC)C(=O)OCC1OC(Oc2ccc(CC3NC(=O)C(C(C)c4ccccc4)NC(=O)CNC(=O)C(CO)NC(=O)C(C(O)C4CNC(=N)N4C4OC(CO)C(O)C(O)C4O)NC(=O)C(C(O)C4CNC(=N)N4)NC3=O)cc2)C(O)C(O)C1OC1OC(CO)C(O)C(O)C1O (stereo not shown) [Example 99b]", "Enterococcus sp.", 32],
  ["CCOc1cc(C2OCC3OC(OC4C(CO)OC(Oc5ccc(CC6NC(=O)C(C(C)c7ccccc7)NC(=O)CNC(=O)C(CO)NC(=O)C(C(O)C7CNC(=N)N7C7OC(CO)C(O)C(O)C7O)NC(=O)C(C(O)C7CNC(=N)N7)NC6=O)cc5)C(O)C4O)C(O)C(O)C3O2)ccc1[N+](=O)[O-] (stereo not shown) [Example 167]", "Enterococcus sp.", 32],
  ["CC(c1ccccc1)C1NC(=O)CNC(=O)C(CO)NC(=O)C(C(O)C2CNC(=N)N2C2OC(CO)C(O)C(O)C2O)NC(=O)C(C(O)C2CNC(=N)N2)NC(=O)C(Cc2ccc(OC3OC(CO)C(OC4OC5COC(c6cc7c(cc6Cl)OCO7)OC5C(O)C4O)C(O)C3O)cc2)NC1=O (stereo not shown) [Example 158]", "Enterococcus sp.", 4]
]}

###

- Test system: Enterococcus sp.
- procedure_details: In vitro antibacterial evaluation: minimum inhibitory concentration (MIC), broth dilution method
- Type: cell-based
- condition_set: broth dilution, inoculum 5×10^5 CFU/mL, 18 hours at 35° C.

{"columns": ["molecule", "MIC Enterococcus faecalis (GC 2242) [µg/mL]"],
 "data": [
  ["CC(c1ccccc1)C1NC(=O)CNC(=O)C(CO)NC(=O)C(C(O)C2CNC(=N)N2C2OC(CO)C(O)C(O)C2O)NC(=O)C(C(O)C2CNC(=N)N2)NC(=O)C(Cc2ccc(OC3OC(CO)C(OC4OC(CO)C(O)C5OC(c6ccc(-c7ccsc7)cc6)OC45)C(O)C3O)cc2)NC1=O (centres unmarked) [Example 164a]", 16],
  ["CC(c1ccccc1)C1NC(=O)CNC(=O)C(CO)NC(=O)C(C(O)C2CNC(=N)N2C2OC(CO)C(O)C(O)C2O)NC(=O)C(C(O)C2CNC(=N)N2)NC(=O)C(Cc2ccc(OC3OC(CO)C(OC4OC5COC6(OC5C(O)C4O)C4CCCC6CCC4)C(O)C3O)cc2)NC1=O (centres unmarked) [Example 212]", 8]
]}

###

- System: Enterococcus sp.
- procedure_details: In vitro antibacterial evaluation: minimum inhibitory concentration (MIC), broth dilution method
- Type: cell-based
- condition_set: broth dilution, inoculum 5×10^5 CFU/mL, 18 hours at 35° C.
- Text: […]
Reported MIC Enterococcus avium (GC 4558) values for a set of compounds

{"columns": ["compound", "measurement_target", "MIC Enterococcus avium (GC 4558)"],
 "data": [
  ["COc1ccc2cc(COC3C(CO)OC(OC4C(CO)OC(Oc5ccc(CC6NC(=O)C(C(C)c7ccccc7)NC(=O)CNC(=O)C(CO)NC(=O)C(C(O)C7CNC(=N)N7C7OC(CO)C(O)C(O)C7O)NC(=O)C(C(O)C7CNC(=N)N7)NC6=O)cc5)C(O)C4O)C(O)C3O)ccc2c1 (stereo not drawn) [Example 230a]", "Enterococcus sp.", "2 to 4 µg/mL"],
  ["CC(c1ccccc1)C1NC(=O)CNC(=O)C(CO)NC(=O)C(C(O)C2CN(c3nc4ccccc4o3)C(=N)N2C2OC(CO)C(O)C(O)C2O)NC(=O)C(C(O)C2CNC(=Nc3nc4ccccc4o3)N2)NC(=O)C(Cc2ccc(OC3OC(CO)C(OC4OC5COC6(OC5C(O)C4O)C4CC5CC(C4)CC6C5)C(O)C3O)cc2)NC1=O (stereo not drawn)", "Enterococcus sp.", "8 µg/mL"],
  ["CC(c1ccccc1)C1NC(=O)CNC(=O)C(CO)NC(=O)C(C(O)C2CNC(=N)N2C2OC(CO)C(O)C(O)C2O)NC(=O)C(C(O)C2CNC(=N)N2)NC(=O)C(Cc2ccc(OC3OC(CO)C(OC4OC5COC6(OC5C(O)C4O)C4CCCC6CCC4)C(O)C3O)cc2)NC1=O (stereo not drawn)", "Enterococcus sp.", "4 µg/mL"]
]}

###

- Test system: Staphylococcus sp.
- procedure_details: In vitro antibacterial evaluation: minimum inhibitory concentration (MIC), broth dilution method
- Assay type: cell-based
- condition_set: strain GC 3051; broth dilution, 18 hours at 35° C.

{"columns": ["molecule", "unit_string", "MIC Staphylococcus aureus (GC 3051)"],
 "data": [
  ["CC(C)=CCCC(C)CC1OCC2OC(OC3C(CO)OC(Oc4ccc(CC5NC(=O)C(C(C)c6ccccc6)NC(=O)CNC(=O)C(CO)NC(=O)C(C(O)C6CNC(=N)N6C6OC(CO)C(O)C(O)C6O)NC(=O)C(C(O)C6CNC(=N)N6)NC5=O)cc4)C(O)C3O)C(O)C(O)C2O1 (stereo not drawn) [Example 126]", "µg/mL", 8],
  ["COc1ccc(Oc2cccc(C3OCC4OC(OC5C(CO)OC(Oc6ccc(CC7NC(=O)C(C(C)c8ccccc8)NC(=O)CNC(=O)C(CO)NC(=O)C(C(O)C8CNC(=N)N8C8OC(CO)C(O)C(O)C8O)NC(=O)C(C(O)C8CNC(=N)N8)NC7=O)cc6)C(O)C5O)C(O)C(O)C4O3)c2)cc1 (stereo not drawn) [Example 180]", "µg/mL", 1]
]}

###

Listing: MIC Enterococcus avium (GC 4558) of selected compounds
- Tested on: Enterococcus sp.
- procedure_details: In vitro antibacterial evaluation: minimum inhibitory concentration (MIC), broth dilution method
- Type: cell-based
- condition_set: broth dilution, inoculum 5×10^5 CFU/mL, 18 hours at 35° C.
parameter: MIC Enterococcus avium (GC 4558) (µg/mL)

{"columns": ["compound", "measurement_target", "measured"],
 "data": [
  ["CC(c1ccccc1)C1NC(=O)CNC(=O)C(CO)NC(=O)C(C(O)C2CNC(=N)N2C2OC(CO)C(O)C(O)C2O)NC(=O)C(C(O)C2CNC(=N)N2)NC(=O)C(Cc2ccc(OC3OC(CO)C(OC4OC5COC(c6ccc(-c7ccsc7)cc6)OC5C(O)C4O)C(O)C3O)cc2)NC1=O (stereo not shown) [Example 164]", "Enterococcus sp.", 8],
  ["CC(c1ccccc1)C1NC(=O)CNC(=O)C(CO)NC(=O)C(CC2CNC(=N)N2C2OC(CO)C(O)C(O)C2O)NC(=O)C(CC2CNC(=N)N2)NC(=O)C(Cc2ccc(OC3OC(CO)C(OC4OC5COC6(OC5C(O)C4O)C4CC5CC(C4)CC6C5)C(O)C3O)cc2)NC1=O (stereo not shown) [Example 219]", "Enterococcus sp.", 4],
  ["CC(c1ccccc1)C1NC(=O)CNC(=O)C(CO)NC(=O)C(C(O)C2CN(Cc3ccc(C(F)(F)F)cc3)C(=N)N2C2OC(CO)C(O)C(O)C2O)NC(=O)C(C(O)C2CNC(=N)N2)NC(=O)C(Cc2ccc(OC3OC(CO)C(OC4OC5COC6(OC5C(O)C4O)C4CC5CC(C4)CC6C5)C(O)C3O)cc2)NC1=O (stereo not shown) [Example 226]", "Enterococcus sp.", 8]
]}
